The measured values listed here are drawn from ChEMBL document CHEMBL1141664.

System: Streptococcus mutans
Test: Antibacterial activity against Streptococcus mutans ATCC 25175 after 2 days by twofold broth dilution method
Format: functional
Conditions: ATCC 25175, 48 h
Result Type: MBC (µg/mL)
Give the number; µg/mL is assumed, so skip it.

>  <Molecule>
CCCCCCCCCCCCc1cccc(O)c1C(=O)O

>  <MBC [µg/mL]>
6.25

$$$$
>  <Molecule>
C=CC/C=C\C/C=C\CCCCCCCc1cccc(O)c1C(=O)O [ANACARDIC ACID]

>  <MBC [µg/mL]>
6.25

$$$$

Measured MBC, `CCC/C=C\C/C=C\CCCCCCCc1cccc(O)c1C(=O)O` : 3.13

Measured MBC, CCCCCC/C=C\CCCCCCCc1cccc(O)c1C(=O)O [GINGKOLIC ACID] : 6.25

###

Entries and their MIC values follow.
System: Streptococcus mutans
Assay: Antibacterial activity against Streptococcus mutans ATCC 25175 after 2 days by twofold broth dilution method
Format: functional
Settings: ATCC 25175, 48 h
Give the number; µg/mL is assumed, so skip it.

Solved cases (4 shown):
>  <Compound>
CCCCCC/C=C\CCCCCCCc1cccc(O)c1C(=O)O

>  <Endpoint Unit>
µg/mL

>  <MIC>
6.25

$$$$
>  <Compound>
CCCCCCCCCCCCc1cccc(O)c1C(=O)O

>  <Endpoint Unit>
µg/mL

>  <MIC>
1.56

$$$$
>  <Compound>
O=C(O)c1c(O)cccc1CC1CCCCCCCCCCC1

>  <Endpoint Unit>
µg/mL

>  <MIC>
1.56

$$$$
>  <Compound>
O=C(O)c1c(O)cccc1CC1CCCC1

>  <Endpoint Unit>
µg/mL

>  <MIC>
25

$$$$

Measured MIC, `C=CC/C=C\C/C=C\CCCCCCCc1cccc(O)c1C(=O)O` : 1.56

Measured MIC, CC(C)CCCC(C)CCCc1cccc(O)c1C(=O)O (stereo not given) : 0.78

Measured MIC, `O=C(O)c1c(O)cccc1CCc1ccc(O)c(O)c1` : 200

Measured MIC, `O=C(O)c1c(O)cccc1CCc1ccc(O)cc1` : 100

Measured MIC, `O=C(O)c1c(O)cccc1CC1CCCCC1` : 25

###

Test system: Streptococcus mutans
Assay: Antibacterial activity against Streptococcus mutans ATCC 25175 after 2 days by twofold broth dilution method
Type: functional
Conditions: ATCC 25175, 48 h
Entries and their log10 MIC values follow.
Plainly stated, the numbers are log10 of MIC given in µg/mL.

Solved cases (6 shown):
>  <Molecule>
O=C(O)c1c(O)cccc1CCc1ccccc1

>  <Study System>
Streptococcus mutans

>  <log10 MIC>
1.70

$$$$
>  <Molecule>
CCCCC(C)Cc1cccc(O)c1C(=O)O (stereo unspecified)

>  <Study System>
Streptococcus mutans

>  <log10 MIC>
1.10

$$$$
>  <Molecule>
O=C(O)c1c(O)cccc1CC1CCCCCCC1

>  <Study System>
Streptococcus mutans

>  <log10 MIC>
0.80

$$$$
>  <Molecule>
O=C(O)c1c(O)cccc1CCCCc1ccccc1

>  <Study System>
Streptococcus mutans

>  <log10 MIC>
0.80

$$$$
>  <Molecule>
O=C(O)c1c(O)cccc1CCc1cc(O)ccc1O

>  <Study System>
Streptococcus mutans

>  <log10 MIC>
2.30

$$$$
>  <Molecule>
CCCCCC(CC)Cc1cccc(O)c1C(=O)O (stereo unspecified)

>  <Study System>
Streptococcus mutans

>  <log10 MIC>
0.50

$$$$

Measured log10 MIC, `CCC/C=C\C/C=C\CCCCCCCc1cccc(O)c1C(=O)O` : 0.50

Measured log10 MIC, `O=C(O)c1c(O)cccc1CCc1cc(O)c(O)cc1O` : 2.30

Measured log10 MIC, `O=C(O)c1c(O)cccc1CCC1CCCCC1` : 0.50
